This section presents compounds with their documented max activation values.
# TESTED_ON: Nuclear receptor subfamily 1 group I member 2 (Rattus norvegicus) (UniProt Q9R1A7)
# Sequence (Q9R1A7 whole entry, looked up): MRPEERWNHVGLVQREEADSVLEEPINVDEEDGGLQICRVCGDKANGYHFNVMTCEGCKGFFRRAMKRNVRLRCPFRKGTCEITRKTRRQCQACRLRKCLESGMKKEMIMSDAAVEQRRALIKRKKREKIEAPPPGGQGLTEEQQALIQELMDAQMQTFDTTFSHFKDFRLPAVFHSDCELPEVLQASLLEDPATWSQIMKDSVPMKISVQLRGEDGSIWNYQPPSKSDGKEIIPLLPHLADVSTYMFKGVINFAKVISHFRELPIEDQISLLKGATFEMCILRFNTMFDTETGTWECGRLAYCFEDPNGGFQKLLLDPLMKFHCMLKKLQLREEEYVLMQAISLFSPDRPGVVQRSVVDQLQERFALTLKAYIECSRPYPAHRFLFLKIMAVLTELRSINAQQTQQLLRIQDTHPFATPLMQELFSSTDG
# EXPERIMENTAL_PROTOCOL: Rat pregnane X receptor (rPXR) activation by small molecules, qHTS assay (AID 1346983); note: % is set by controls: 0 for no effect and ±100 for the full control effect; nearly all actives have a fitted effect of over 20% in size
# MEASUREMENT_PARAMETERS: rPXR luciferase reporter cells, One-Glo luminescence, 24 h; stronger effect = higher value
Records with an inconclusive call do not appear. Active and inactive are the calls of the source. Calls come from the whole dose curve; as a rule, active = well fitted activation curve with a large enough effect in the repeat runs; inconclusive = weak or mixed curves; inactive = no such curve, though single readings can be large or run the other way.
OBSERVATION_TYPE: max activation

| COMPOUND | MEAS_VALUE |
| --- | --- |
| CCCCCCCCCCCCCCCC(=O)OC[C@@H](O)[C@H]1OC[C@H](O)[C@H]1O | 2.9% (inactive) |
| CC(C)[C@@H]1CC[C@@H](C)C[C@H]1OC(=O)c1ccccc1O | -0.772% (inactive) |
| C[C@]12CCC(=O)C=C1CC[C@@H]1[C@@H]2[C@@H](O)C[C@@]2(C)[C@H]1CC[C@]2(O)C(=O)COP(=O)(O)O | 11.6% (inactive) |
| Cc1cccc(Nc2ncccc2C(=O)O)c1C | -0.253% (inactive) |
| CCCCCCOc1ccc(C(=N)N(CCCC)CCCC)c2ccccc12 | -20.9% (inactive) |
| CCCCCCCCCCCCCC[n+]1ccc(C)cc1 | -19.6% (inactive) |
| CC(C)[C@@H](C)/C=C/[C@@H](C)[C@H]1CC[C@H]2/C(=C/C=C3\C[C@@H](O)CC[C@@H]3C)CCC[C@]12C | -0.157% (inactive) |
| CC(C)(C)C(=O)OCOC(=O)[C@@H]1N2C(=O)[C@@H](N=CN3CCCCCC3)[C@H]2SC1(C)C | -0.301% (inactive) |
| CCOC(=O)O[C@]1(C(=O)COC(=O)CC)CC[C@H]2[C@@H]3CCC4=CC(=O)C=C[C@]4(C)[C@H]3[C@@H](O)C[C@@]21C | 13.1% (inactive) |
| Nc1nc(=O)n([C@@H]2CS[C@H](CO)O2)cc1F | 2.33% (inactive) |
| O=C(OC1C[C@@H]2CC3C[C@H](C1)N2CC3=O)c1c[nH]c2ccccc12 (stereo partly specified) | 6.05% (inactive) |

====

# TESTED_ON: Estrogen receptor (Homo sapiens)
# EXPERIMENTAL_PROTOCOL: qHTS assay to identify small molecule antagonists of the estrogen receptor alpha (ER-alpha) signaling pathway (AID 743069)
# MEASUREMENT_PARAMETERS: HEK293 ER-alpha-UAS-bla, beta-lactamase ratio, antagonist mode; series mostly up to 69.4 µM
Calls of active or inactive are those of the source. Calls follow the shape of the dose curve; as a rule, active = well fitted curve in the direction sought with a large enough effect in the signal ratio in the repeat runs (not every such curve was filed as active); inconclusive = weak or mixed curves, or effect the other way; inactive = no such curve, though single readings can be large or run the other way; the % refers to the signal ratio.
Possible outcomes: active, inactive

| COMPOUND | TESTED_ON | CATEGORY |
| --- | --- | --- |
| CN1[C@@H]2CC[C@H]1CC(OC(c1ccccc1)c1ccccc1)C2 (some centres undefined) | Estrogen receptor (Homo sapiens) | inactive |
| Cc1nc(NS(=O)(=O)c2ccc(N)cc2)nc(C)c1Br | Estrogen receptor (Homo sapiens) | inactive |
| NC(=O)c1ccc[n+]([C@@H]2O[C@H](COP(=O)([O-])OP(=O)(O)OC[C@H]3O[C@@H](n4cnc5c(N)ncnc54)[C@H](O)[C@@H]3O)[C@@H](O)[C@H]2O)c1 | Estrogen receptor (Homo sapiens) | inactive |
| CN(C)C(=O)CCSC(SCCC(=O)O)c1cccc(/C=C/c2ccc3ccc(Cl)cc3n2)c1 (centres undefined) | Estrogen receptor (Homo sapiens) | active |

====

# EXPERIMENTAL_PROTOCOL: qHTS assay for small molecule disruptors of the mitochondrial membrane potential (AID 720635)
# MEASUREMENT_PARAMETERS: HepG2 mitochondrial membrane potential, Mito-MPS dye ratio; series mostly up to 83.2 µM
Records with an inconclusive call do not appear. Calls of active or inactive are those of the source. Calls come from the whole dose curve; as a rule, active = well fitted inhibition curve with a large enough effect in the signal ratio in the repeat runs; inconclusive = weak or mixed curves, or effect the other way; inactive = flat fitted curve, though single readings scatter; the % refers to the signal ratio.
Possible outcomes: yes (active), no (inactive)

| COMPOUND | CATEGORY |
| --- | --- |
| O=C(O)[C@@H](O)[C@H](O)[C@H](O)[C@@H](O)C(=O)O (tested in a mixture with another compound) | no |
| CCCCCC(O)/C=C/C=O (configuration not stated) | no |
| CCNC(=O)[C@@H]1CCCN1C(=O)[C@H](CCCN=C(N)N)NC(=O)[C@H](CC(C)C)NC(=O)[C@@H](Cc1c[nH]c2ccccc12)NC(=O)[C@H](Cc1ccc(O)cc1)NC(=O)[C@H](CO)NC(=O)[C@H](Cc1c[nH]c2ccccc12)NC(=O)[C@H](Cc1cnc[nH]1)NC(=O)[C@@H]1CCC(=O)N1 | yes |
| O=C(O)c1cc(N=Nc2ccc(O)c(C(=O)O)c2)ccc1O | no |
| CC(CN(C)C)CN1c2ccccc2S(=O)(=O)c2ccccc21 (configuration not stated) | no |
| CCOC(=O)CN[C@@H](C(=O)N1CC[C@H]1C(=O)NCc1ccc(/C(N)=N/O)cc1)C1CCCCC1 | no |
| CCCCCCCCCCCCCC[n+]1ccc(C)cc1 | yes |
| COC(=O)CCC(=O)CN | no |
| Cc1c(Cl)cccc1Nc1ncccc1C(=O)O | yes |
| CCOC(=O)[C@H](CCc1ccccc1)N[C@@H](C)C(=O)N1CC2(C[C@H]1C(=O)O)SCCS2 | no |
| C#C[C@]1(O)CC[C@H]2[C@@H]3CCC4=CC(=O)CC[C@@H]4[C@H]3C(=C)C[C@@]21CC | no |
| CCCCCCCCCCCCCCCC(=O)OCC(COC(=O)CCCCCCCCCCCCCCC)OC(=O)CCCCCCCCCCCCCCC | no |
| CCCc1nc(C(C)(C)O)c(C(=O)OCc2oc(=O)oc2C)n1Cc1ccc(-c2ccccc2-c2nn[nH]n2)cc1 | no |
| NC(=O)OC[C@@H]1[C@H](NC(=O)/C(=N\OCC(=O)O)c2csc(N)n2)C(=O)N1S(=O)(=O)O | no |
| CC(C)(CO)[C@@H](O)C(=O)NCCC(=O)NCCSSCCNC(=O)CCNC(=O)[C@H](O)C(C)(C)CO | no |
| CCOC(=O)Cc1cccc(-c2cc(CCCCCCc3ccc(O[C@H]4O[C@H](COC(C)=O)[C@@H](OC(C)=O)[C@H](OC(C)=O)[C@@H]4OC(C)=O)c(-c4cccc(CC(=O)OCC)c4)c3)ccc2O[C@H]2O[C@H](COC(C)=O)[C@@H](OC(C)=O)[C@H](OC(C)=O)[C@@H]2OC(C)=O)c1 | no |
| CNC(C)CCC=C(C)C (configuration not stated) | no |

====

# TESTED_ON: Nuclear receptor subfamily 1 group I member 2 (Homo sapiens) (UniProt O75469)
# EXPERIMENTAL_PROTOCOL: Human pregnane X receptor (PXR) activation by small molecules, qHTS assay (AID 1346985); note: nearly all actives have a fitted effect of over 40% in size; for activation: % is set by controls: 0 for no effect and ±100 for the full control effect
# MEASUREMENT_PARAMETERS: DPX-2 HepG2 CYP3A4-luciferase, 24 h; series mostly up to 38.3 µM
Inconclusive results are not listed. Calls of active or inactive are those of the source. Calls follow the shape of the dose curve; as a rule, active = well fitted activation curve with a large enough effect in the repeat runs; inconclusive = weak or mixed curves; inactive = flat fitted curve, though single readings scatter.
Classes used: active, inactive

| COMPOUND | CATEGORY |
| --- | --- |
| CCCCCCCCCCCCCCCCCC[N+](C)(C)CCC[Si](OC)(OC)OC | inactive |
| COc1cc(/C=C/C(=O)N2CCN(CC(=O)N3CCCC3)CC2)cc(OC)c1OC | inactive |
| CCNC(=O)[C@@H]1CCCN1C(=O)[C@H](CCCN=C(N)N)NC(=O)[C@H](CC(C)C)NC(=O)[C@@H](Cc1c[nH]c2ccccc12)NC(=O)[C@H](Cc1ccc(O)cc1)NC(=O)[C@H](CO)NC(=O)[C@H](Cc1c[nH]c2ccccc12)NC(=O)[C@H](Cc1cnc[nH]1)NC(=O)[C@@H]1CCC(=O)N1 | inactive |
| CC(C)C(=O)OCC(=O)[C@@]12O[C@H](C3CCCCC3)O[C@@H]1C[C@H]1[C@@H]3CCC4=CC(=O)C=C[C@]4(C)[C@H]3[C@@H](O)C[C@@]12C | active |
| Cc1c(Cl)cccc1Nc1ncccc1C(=O)O | inactive |
| NS(=O)(=O)c1cc2c(cc1Cl)NC(Cc1ccccc1)NS2(=O)=O (centres undefined) | inactive |
| C[C@]12C=CC(=O)N[C@@H]1CC[C@@H]1[C@@H]2CC[C@]2(C)[C@@H](C(=O)Nc3cc(C(F)(F)F)ccc3C(F)(F)F)CC[C@@H]12 | inactive |
| CC(C)(C)NC[C@H](O)COc1ccccc1C1CCCC1 | inactive |
| C=CCOc1ccc(CC(=O)O)cc1Cl | inactive |
| CC(C)CCC[C@@H](C)[C@H]1CC(=O)C2=C3CC[C@H]4C[C@@H](O)CC[C@]4(C)[C@H]3CC[C@@]21C | inactive |
| C[Se]CCC(N)C(=O)O (centres undefined) | inactive |
| CCCCCCCCCCCCCCCCCC(=O)OC[C@@H](O)[C@H]1OC[C@H](O)[C@H]1O | inactive |
| CC(C)c1nc(N(C)S(C)(=O)=O)nc(-c2ccc(F)cc2)c1/C=C/C(O)CC(O)CC(=O)O (centres undefined) | inactive |
| [O]=[Bi][O][Bi]=[O] | inactive |
| CS(=O)(=O)OCC(O)C(O)COS(C)(=O)=O (centres undefined) | inactive |
| CC(C)Cc1ccc([C@@H](C)C(=O)NS(C)(=O)=O)cc1 | inactive |
| O=C(Cc1cccs1)N[C@@H]1C(=O)N2C(C(=O)[O-])=C(C[n+]3ccccc3)CS[C@H]12 | inactive |
| CC(=O)c1ccc2c(c1)N(CCCN1CCN(CCO)CC1)c1ccccc1S2 | inactive |
| Cn1c(O)c(N=NC(N)=S)c2ccccc21 | active |
| C=C1CC[C@H](O)CC1=C/C=C1\CCC[C@]2(C)[C@@H]([C@H](C)CCCC(C)(C)O)CC[C@@H]12 | inactive |
| C[C@]12CCC(=O)C[C@@H]1CC[C@@H]1[C@@H]2CC[C@]2(C)C=CC[C@@H]12 | inactive |
| CCSc1ccc2c(c1)N(CCCN1CCN(C)CC1)c1ccccc1S2 | inactive |
| O=C(/C=C/c1cccc(F)c1)NC1CC1 | active |
| CCN(CC)CCC(=O)N1c2ccccc2Sc2ccc(Cl)cc21 | active |
| [O]=[Bi][O]C(=O)[O][Bi]=[O] | inactive |
| CCCCCCCCCCCC(=O)OC[C@@H](O)C1OC[C@H](O)[C@H]1O (some centres undefined) | inactive |
| O=C(COc1ccc(Cl)cc1)OCCNC12CC3CC(CC(C3)C1)C2 | inactive |
| CCCCCCCCCCCCCCCCCCCCCCO | inactive |
| O=C(O)COc1ccc(CCNS(=O)(=O)c2ccccc2)s1 | inactive |
| CC(=O)N(CC(C)C(=O)O)c1c(I)cc(I)c(N)c1I (centres undefined) | inactive |
| C[C@@H]1C[C@H]2[C@@H]3CCC4=CC(=O)C=C[C@]4(C)[C@@]3(F)[C@@H](O)C[C@]2(C)[C@@]1(O)C(=O)COC(=O)c1cccc(S(=O)(=O)O)c1 | inactive |
| O=S(=O)(O)CCCS(=O)(=O)O | inactive |
| C[C@]12CC[C@@H]3c4ccc(OC(=O)c5ccccc5)cc4CC[C@H]3[C@@H]1CC[C@@H]2O | inactive |
| CCCCC(O)c1ccccc1 (centres undefined) | inactive |
| CC(=O)N[C@@H](C=O)[C@@H](O)[C@H](O)[C@H](O)CO | inactive |
| Nc1ncnc2c1ncn2CCOCP(=O)(O)O | inactive |
| NC(N)=NCC1COc2ccccc2O1 (centres undefined) | inactive |
| CC[C@H]1NC(=O)[C@@H](NC(=O)c2ncccc2O)[C@@H](C)OC(=O)[C@H](c2ccccc2)NC(=O)[C@@H]2CC(=O)CCN2C(=O)[C@H](Cc2ccccc2)N(C)C(=O)[C@@H]2CCCN2C1=O | inactive |
| COc1ccc(C[C@@H](C)NC[C@H](O)c2ccc(O)c(NC=O)c2)cc1 | inactive |
